test system: CCRIS mutagenicity, Ames/micronucleus/aberration tests; test: CCRIS mutagenicity studies; details: Test System: AMES SALMONELLA TYPHIMURIUM; Strain/Indicator: TA100(1,8-DNP); Metabolic Activation: RAT, LIVER, S-9, PCB; Method: PREINCUBATION
Activity calls are given as the source filed them. How the calls were made is not given here.
Labels: True (active), False (inactive)

[[record]]
mol_smiles = "Nc1nc(-c2ccc([N+](=O)[O-])cc2)nc2c1ncn2[C@@H]1O[C@H](CO)[C@@H](O)[C@H]1O"
class = "False"

[[record]]
mol_smiles = "Nc1ncnc2c1ncn2Cc1ccc([N+](=O)[O-])cc1"
class = "False"

[[record]]
mol_smiles = "Nc1nc(-c2ccc([N+](=O)[O-])cc2)nc2nc[nH]c12"
class = "True"

[[record]]
mol_smiles = "Nc1ncnc2c1ncn2-c1ccc([N+](=O)[O-])cc1[N+](=O)[O-]"
class = "False"

